Sourced from PubChem BioAssay AID1963451

Reported pIC50 values follow for various compounds
tested on: 521955-158-R6-J3-PDC complex spheroid growth, % test/control; experiment: Anticancer human tumor 521955-158-R6-J3-PDC patient-derived pancreatic carcinoma cell line growth inhibition [Asc]; conditions: curve of first compound; second compound 0.3 µM
pIC50: −log10 of the molar value.

compound	assayed.system	pIC50
C=CC(=O)N1CCN(c2nc(=O)n(-c3c(C)ccnc3C(C)C)c3nc(-c4c(O)cccc4F)c(F)cc23)C(C)C1 (configuration not stated) + CCN1C(C(=O)NC23CCC(C(=O)O)(CC2)CC3)C(c2cccc(Cl)c2F)C2(C(=O)Nc3cc(Cl)ccc32)C12CCCCC2	521955-158-R6-J3-PDC complex spheroid growth, % test/control	< 5.00

Lab note: next compound to report on.
Input: Recorded pIC50 for CNC(C)C(=O)NC1CN(S(=O)(=O)c2cccc(S(=O)(=O)N3CCC4CCC(C(=O)NC(c5ccccc5)c5ccccc5)N4C(=O)C(NC(=O)C(C)NC)C3)c2)CCC2CCC(C(=O)NC(c3ccccc3)c3ccccc3)N2C1=O (configuration not stated) + CCN1C(C(=O)NC23CCC(C(=O)O)(CC2)CC3)C(c2cccc(Cl)c2F)C2(C(=O)Nc3cc(Cl)ccc32)C12CCCCC2 , please?
Output: < 6.00

====

system: 521955-158-R6-J3-PDC complex spheroid growth, % test/control; assay: Anticancer human tumor 521955-158-R6-J3-PDC cell line growth inhibition [Asc]; details: second compound 0.03 µM; first compound 0.1 µM; stronger effect = lower value;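 further: spheroids exposed to compounds for 7 days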;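 on viability, T/C: 100% = DMSO vehicle control wells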
Reported viability, T/C values follow for various molecules
Respond with the bare value in %.

// worked examples, viability, T/C included
molecule	val
O=C(c1cc(Cc2n[nH]c(=O)c3ccccc23)ccc1F)N1CCN(C(=O)C2CC2)CC1 + CCN1C(C(=O)NC23CCC(C(=O)O)(CC2)CC3)C(c2cccc(Cl)c2F)C2(C(=O)Nc3cc(Cl)ccc32)C12CCCCC2	98.7
O=C(c1ccc(F)c(F)c1Nc1ccc(I)cc1F)N1CC(O)([C@@H]2CCCCN2)C1 + CCN1C(C(=O)NC23CCC(C(=O)O)(CC2)CC3)C(c2cccc(Cl)c2F)C2(C(=O)Nc3cc(Cl)ccc32)C12CCCCC2	104
NC1CCC(NC2CC2c2ccccc2)CC1 (stereo not given) + CCN1C(C(=O)NC23CCC(C(=O)O)(CC2)CC3)C(c2cccc(Cl)c2F)C2(C(=O)Nc3cc(Cl)ccc32)C12CCCCC2	84.7
C=C(F)C(=O)N1CCN(c2nc(OCC3CCCN3C)nc3c2CCN(c2cccc4cccc(Cl)c24)C3)CC1CC#N (stereo not given) + CCN1C(C(=O)NC23CCC(C(=O)O)(CC2)CC3)C(c2cccc(Cl)c2F)C2(C(=O)Nc3cc(Cl)ccc32)C12CCCCC2	108

Lab note: next molecule to report on.
Input: Recorded viability, T/C for C#Cc1c(F)ccc2cc(O)cc(-c3ncc4c(N5CC6CCC(C5)N6)nc(OCC56CCCN5CC(F)C6)nc4c3F)c12 (stereo not given) + CCN1C(C(=O)NC23CCC(C(=O)O)(CC2)CC3)C(c2cccc(Cl)c2F)C2(C(=O)Nc3cc(Cl)ccc32)C12CCCCC2 , please?
Output: 58

====

system: 521955-158-R6-J3-PDC complex spheroid growth, % test/control; test: Anticancer human tumor 521955-158-R6-J3-PDC cell line growth inhibition [Asc]; conditions: second compound 0.03 µM; first compound 0.1 µM; stronger effect = lower value;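 further: spheroids exposed to compounds for 7 days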;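 on viability, T/C: 100% = DMSO vehicle control wells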
recorded.endpoint: viability, T/C (%)
Respond with the bare value in %.

molecule	viability, T/C (%)
CNC(C)C(=O)NC1CN(S(=O)(=O)c2cccc(S(=O)(=O)N3CCC4CCC(C(=O)NC(c5ccccc5)c5ccccc5)N4C(=O)C(NC(=O)C(C)NC)C3)c2)CCC2CCC(C(=O)NC(c3ccccc3)c3ccccc3)N2C1=O (stereo not given) + CCN1C(C(=O)NC23CCC(C(=O)O)(CC2)CC3)C(c2cccc(Cl)c2F)C2(C(=O)Nc3cc(Cl)ccc32)C12CCCCC2	101
CCN1CCN(Cc2ccc(Nc3ncc(F)c(-c4cc(F)c5nc(C)n(C(C)C)c5c4)n3)nc2)CC1 + CCN1C(C(=O)NC23CCC(C(=O)O)(CC2)CC3)C(c2cccc(Cl)c2F)C2(C(=O)Nc3cc(Cl)ccc32)C12CCCCC2	92.2
C=CC(=O)N1CCN(c2nc(=O)n(-c3c(C)ccnc3C(C)C)c3nc(-c4c(O)cccc4F)c(F)cc23)C(C)C1 (stereo not given) + CCN1C(C(=O)NC23CCC(C(=O)O)(CC2)CC3)C(c2cccc(Cl)c2F)C2(C(=O)Nc3cc(Cl)ccc32)C12CCCCC2	113
Cn1ncnc1[C@H]1c2n[nH]c(=O)c3cc(F)cc(c23)N[C@@H]1c1ccc(F)cc1 + CCN1C(C(=O)NC23CCC(C(=O)O)(CC2)CC3)C(c2cccc(Cl)c2F)C2(C(=O)Nc3cc(Cl)ccc32)C12CCCCC2	94.6

Lab note: next molecule to report on.
Input: Recorded viability, T/C for COc1c(OCCCN2CCOCC2)ccc2c3n(c(=NC(=O)c4cnc(N)nc4)nc12)CCN3 + CCN1C(C(=O)NC23CCC(C(=O)O)(CC2)CC3)C(c2cccc(Cl)c2F)C2(C(=O)Nc3cc(Cl)ccc32)C12CCCCC2 , please?
Output: 66.2
